B1: library; numbered along this chain (parent)
chain: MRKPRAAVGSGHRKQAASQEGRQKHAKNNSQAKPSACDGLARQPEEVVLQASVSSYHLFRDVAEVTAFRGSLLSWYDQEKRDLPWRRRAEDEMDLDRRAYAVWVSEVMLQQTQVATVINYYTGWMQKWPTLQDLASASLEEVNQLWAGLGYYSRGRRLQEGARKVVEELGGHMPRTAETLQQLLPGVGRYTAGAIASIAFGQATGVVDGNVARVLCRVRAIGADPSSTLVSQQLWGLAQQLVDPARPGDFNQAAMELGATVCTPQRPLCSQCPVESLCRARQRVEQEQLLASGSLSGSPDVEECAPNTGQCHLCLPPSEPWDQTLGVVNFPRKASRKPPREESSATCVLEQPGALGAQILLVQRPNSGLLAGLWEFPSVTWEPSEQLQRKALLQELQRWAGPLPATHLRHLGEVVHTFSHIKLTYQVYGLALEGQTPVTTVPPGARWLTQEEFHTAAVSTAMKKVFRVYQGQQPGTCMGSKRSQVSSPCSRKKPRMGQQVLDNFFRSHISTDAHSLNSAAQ

- Variants of: B1
- procedure-summary: 8OG:A repair function score (normalized; synonymous = 0, nonsense = -1) (normalized log-likelihood score); higher = more repair activity (WT-like);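 also: cells sorted at 72 h after reporter transfection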
- measurement-setup: with 8OG:A DNA repair reporter (GFP) in HEK-293 MUTYH KO cells
Items are presented alongside their recorded 8OG:A repair function score.
// no unit, no text: just the number

Ask | Name the reported 8OG:A repair function score value associated with the variant P365C
Reply | 0.0287

Ask | Could you do the same for S510P , please?
Reply | 0.0141

Ask | Could you do the same for L241D , please?
Reply | -0.924

Ask | Could you do the same for Q265D , please?
Reply | -0.156

Ask | Could you do the same for Y425K , please?
Reply | -0.0804
